- EXPERIMENTAL SYSTEM: c-AMP phosphodiesterase (erythrocytes)
- ASSAY METHOD TEXT: Inhibition of Cyclic AMP Phosphodiesterase
- MEASUREMENT SETUP: erythrocyte phosphodiesterase extract
ENDPOINT NAME: pKi
Give bare numbers, as −log10 of the molar value.

For the 2 molecules below, give their pKi values.
1. COc1ccc(C2=CC(=O)CC2)cc1OC1CCCC1
2. COc1ccc(C2CCCCC2)cc1OC

Result:
1. 5.96
2. 4.85

----------
So I've got a bunch of compounds here, and I need their Ki values.
- EXPERIMENTAL SYSTEM: c-AMP phosphodiesterase (erythrocytes)
- ASSAY METHOD TEXT: Inhibition of Cyclic AMP Phosphodiesterase
- MEASUREMENT SETUP: erythrocyte phosphodiesterase extract
Numbers only, in nM.

Sample answers from the record:
Task: // lookup Ki for COc1ccc(C2=CC(=O)CCC2)cc1OC1CCCC1
Result: 700

Task: // lookup Ki for COc1ccc(C2=CC(=O)CC2)cc1OC
Result: 10900

Task: // lookup Ki for COc1ccc(C2=CC(=O)CCC2)cc1OC
Result: 3000

The record that follows has no Ki shown yet.
Task: // lookup Ki for COc1ccc(C2CCCCC2)cc1OC1CCCC1
Result: 2100
